system.tested: T1, IL-1β (UniProt P01584 117-269)
T1 construct: Antigen immobilised on the Biacore chip
assay.notes: Biacore, periplasmic extract
experimental.endpoint: fold difference in affinity vs original
Answer as a quantity: numeral, then unit.

Look up fold difference in affinity vs original for this binder: XPA23 light chain S50W (Fab, V domains shown) VH: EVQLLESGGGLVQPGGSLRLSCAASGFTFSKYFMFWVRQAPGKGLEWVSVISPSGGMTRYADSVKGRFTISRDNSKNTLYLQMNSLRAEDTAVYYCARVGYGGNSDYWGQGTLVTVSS VL: DIQMTQSPSSVSASVGDRLTIICRASQDINRWLAWYQQTPGNAPKLLIHWATSLQSGVPSRFSGSGSGTDFTLTINSLQPEDFATYYCQQADSFPLTFGGGTKVEIK
0.02 fold

Now the same for XPA23 light chain N30T (Fab, V domains shown) VH: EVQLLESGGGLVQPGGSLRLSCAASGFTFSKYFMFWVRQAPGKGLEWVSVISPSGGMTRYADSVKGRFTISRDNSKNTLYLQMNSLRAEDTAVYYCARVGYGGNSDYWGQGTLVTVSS VL: DIQMTQSPSSVSASVGDRLTIICRASQDITRWLAWYQQTPGNAPKLLIHSATSLQSGVPSRFSGSGSGTDFTLTINSLQPEDFATYYCQQADSFPLTFGGGTKVEIK
0.97 fold

Now the same for XPA23 light chain T52N (Fab, V domains shown) VH: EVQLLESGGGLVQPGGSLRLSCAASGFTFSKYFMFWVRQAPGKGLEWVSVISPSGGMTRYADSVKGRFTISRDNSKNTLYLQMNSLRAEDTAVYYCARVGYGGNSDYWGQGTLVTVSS VL: DIQMTQSPSSVSASVGDRLTIICRASQDINRWLAWYQQTPGNAPKLLIHSANSLQSGVPSRFSGSGSGTDFTLTINSLQPEDFATYYCQQADSFPLTFGGGTKVEIK
0.83 fold

Values were extracted from patent US20110118131A1.
